molecular target: plasma purified human complement protein C3 (human) (UniProt P01024); assay: cell-based or functional assay
Sequence (P01024 23-667, chain 1 of 2): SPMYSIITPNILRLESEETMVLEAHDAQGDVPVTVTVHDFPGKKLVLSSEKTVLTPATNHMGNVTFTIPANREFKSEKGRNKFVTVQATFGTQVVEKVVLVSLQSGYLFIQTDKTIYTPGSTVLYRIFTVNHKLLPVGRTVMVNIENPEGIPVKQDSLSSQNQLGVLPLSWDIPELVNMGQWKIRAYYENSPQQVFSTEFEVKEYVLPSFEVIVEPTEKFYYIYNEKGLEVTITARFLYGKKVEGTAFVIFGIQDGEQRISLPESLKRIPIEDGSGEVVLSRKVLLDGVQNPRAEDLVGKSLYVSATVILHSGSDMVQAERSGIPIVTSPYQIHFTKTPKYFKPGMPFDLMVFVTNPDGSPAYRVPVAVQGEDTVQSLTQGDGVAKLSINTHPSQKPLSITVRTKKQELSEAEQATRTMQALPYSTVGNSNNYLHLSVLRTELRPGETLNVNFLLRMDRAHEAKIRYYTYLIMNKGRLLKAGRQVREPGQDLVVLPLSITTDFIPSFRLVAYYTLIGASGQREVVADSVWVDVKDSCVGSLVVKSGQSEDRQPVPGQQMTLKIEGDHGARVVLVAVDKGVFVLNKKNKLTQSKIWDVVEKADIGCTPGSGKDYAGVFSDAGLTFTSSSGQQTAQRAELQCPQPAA
Sequence (P01024 672-1663, chain 2 of 2): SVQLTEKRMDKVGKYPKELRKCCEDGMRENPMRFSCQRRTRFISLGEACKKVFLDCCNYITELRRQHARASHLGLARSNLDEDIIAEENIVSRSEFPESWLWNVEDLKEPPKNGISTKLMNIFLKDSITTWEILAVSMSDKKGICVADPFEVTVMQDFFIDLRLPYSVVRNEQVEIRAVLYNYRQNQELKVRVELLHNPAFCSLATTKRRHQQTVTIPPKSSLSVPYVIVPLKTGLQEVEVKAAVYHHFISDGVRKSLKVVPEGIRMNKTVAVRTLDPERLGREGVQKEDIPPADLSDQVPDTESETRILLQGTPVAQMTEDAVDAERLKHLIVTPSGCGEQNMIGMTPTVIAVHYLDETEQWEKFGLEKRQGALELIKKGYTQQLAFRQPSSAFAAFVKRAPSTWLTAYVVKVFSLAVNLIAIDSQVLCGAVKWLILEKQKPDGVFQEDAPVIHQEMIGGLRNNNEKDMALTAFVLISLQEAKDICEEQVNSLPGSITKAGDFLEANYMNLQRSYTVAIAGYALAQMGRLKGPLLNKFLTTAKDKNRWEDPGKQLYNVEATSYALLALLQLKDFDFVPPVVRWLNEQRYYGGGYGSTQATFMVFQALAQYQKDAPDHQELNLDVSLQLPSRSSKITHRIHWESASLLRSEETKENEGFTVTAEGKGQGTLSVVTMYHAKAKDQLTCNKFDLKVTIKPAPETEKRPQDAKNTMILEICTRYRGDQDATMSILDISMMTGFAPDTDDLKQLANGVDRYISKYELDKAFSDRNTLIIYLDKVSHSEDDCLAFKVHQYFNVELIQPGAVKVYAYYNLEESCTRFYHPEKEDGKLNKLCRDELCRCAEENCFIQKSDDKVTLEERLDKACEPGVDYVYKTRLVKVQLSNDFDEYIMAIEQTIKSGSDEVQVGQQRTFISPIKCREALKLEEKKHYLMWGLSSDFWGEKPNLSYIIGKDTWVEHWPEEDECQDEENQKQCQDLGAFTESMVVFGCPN
endpoint label: EC50 hC3 cleavage (nM)
Write the number in nM without appending the unit.

Example cases with answers are listed next.
MTSP-1 protease domain I41A/Y60gW/ins97aE/F99L/C122S/Q175M/Q192T (enzyme) VVGGTDADEGEWPWQVSLHALGQGHACGASLISPNWLVSAAHCYIDDRGFRWSDPTQWTAFLGLHDQSQRSAPGVQERRLKRIISHPFFNDFETLDYDIALLELEKPAEYSSMVRPISLPDASHVFPAGKAIWVTGWGHTQYGGTGALILQKGEIRVINQTTCENLLPQMITPRMMCVGFLSGGVDSCTGDSGGPLSSVEADGRIFQAGVVSWGDGCAQRNKPGVYTRLPLFRDWIKENTGV :: 8.9
MTSP-1 protease domain I41G/F99L/C122S/G151N/Q175I/Q192T/D217T (enzyme) VVGGTDADEGEWPWQVSLHALGQGHGCGASLISPNWLVSAAHCYIDDRGFRYSDPTQWTAFLGLHDQSQRSAPGVQERRLKRIISHPFFNDFTLDYDIALLELEKPAEYSSMVRPISLPDASHVFPAGKAIWVTGWGHTQYGGTNALILQKGEIRVINQTTCENLLPQIITPRMMCVGFLSGGVDSCTGDSGGPLSSVEADGRIFQAGVVSWGTGCAQRNKPGVYTRLPLFRDWIKENTGV :: 108

# context switch: different binder, same EC50 hC3 cleavage
Measured EC50 hC3 cleavage, MTSP-1 protease domain I41D/G43A/D96E/F99L/C122S/G151N/Q192T (enzyme) VVGGTDADEGEWPWQVSLHALGQGHDCAASLISPNWLVSAAHCYIDDRGFRYSDPTQWTAFLGLHDQSQRSAPGVQERRLKRIISHPFFNEFTLDYDIALLELEKPAEYSSMVRPISLPDASHVFPAGKAIWVTGWGHTQYGGTNALILQKGEIRVINQTTCENLLPQQITPRMMCVGFLSGGVDSCTGDSGGPLSSVEADGRIFQAGVVSWGDGCAQRNKPGVYTRLPLFRDWIKENTGV : 45
